targetSystem: EsaR (Pantoea stewartii subsp. stewartii, UniProt P54293)
Construct: expressed in transfected cells; host or cells: E. coli JLD271 (K12 ΔsdiA), arabinose-induced pJN105-esaR
Sequence (P54293 whole entry): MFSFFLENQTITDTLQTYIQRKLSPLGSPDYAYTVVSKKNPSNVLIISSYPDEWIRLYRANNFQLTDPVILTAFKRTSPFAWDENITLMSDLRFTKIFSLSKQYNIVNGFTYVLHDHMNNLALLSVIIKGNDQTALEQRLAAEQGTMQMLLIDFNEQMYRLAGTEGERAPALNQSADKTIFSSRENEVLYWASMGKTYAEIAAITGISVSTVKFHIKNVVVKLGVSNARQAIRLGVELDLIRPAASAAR
procedureText: cell-based
particulars: 3.5 h, read-out: EsaR-repressed (pesaR) [%] agonism
recordedEndpoint: activation at 100 µM (%)
One number for each entry, in %.

A selection of reference data follows.
compound	outputUnit	activation at 100 µM
O=C(/C=C/c1ccccc1)N[C@H]1CCOC1=O	%	-2
COc1cccc(CC(=O)N[C@H]2CCOC2=O)c1 [E2]	%	3

Please go through the list and note activation at 100 µM for each compound.
1. O=C(Cc1cccc([N+](=O)[O-])c1)N[C@H]1CCOC1=O
2. CCCCCCCCCC(=O)CC(=O)N[C@H]1CCOC1=O [OdDHL, 3-(oxo)-dodecanoyl HL, reference compound]
3. CCCCCC(=O)CC(=O)N[C@H]1CCOC1=O [OOHL, 3-(oxo)-octanoyl HL, reference compound]
4. O=C(Cc1ccc([N+](=O)[O-])cc1)N[C@H]1CCOC1=O

Response line:
22
26
91
14

// for each compound below, give its activation at 100 µM
1. O=C(Cc1cccc(Br)c1)N[C@H]1CCOC1=O
2. CCCCCCCCCCCC(=O)CC(=O)N[C@H]1CCOC1=O [OtDHL, reference compound]
3. CSc1cccc(CC(=O)N[C@H]2CCOC2=O)c1
4. CCCCCCCCCC(=O)N[C@H]1CCOC1=O [DHL, reference compound]

Response line:
1. 30
2. 13
3. 11
4. 4

---

I'd appreciate it if you could supply pEC50 values for the items below.
targetSystem: EsaR (Pantoea stewartii subsp. stewartii, UniProt P54293)
Construct: expressed in transfected cells; host or cells: E. coli JLD271 (K12 ΔsdiA), arabinose-induced pJN105-esaR
procedureText: P. stewartii ESN51 (ΔesaI) GFP reporter with EsaR-repressed promoter (pesaR)
Format: cell-based
One number for each entry, as −log10 of the molar value.

compound	targetSystem	pEC50
O=C1OCC[C@@H]1NS(=O)(=O)c1ccc(Br)cc1 [GAF 35]	EsaR (Pantoea stewartii subsp. stewartii, UniProt P54293)	4.57

Lab note: next compound to report on.
Prompt line: Please report the recorded pEC50 for O=C1OCC[C@@H]1NS(=O)(=O)c1ccc(Cl)c(F)c1 [GAF 64, 3-F, 4-Cl BSHL] .
Response line: 5.17

---

targetSystem: EsaR (Pantoea stewartii subsp. stewartii)
Construct: expressed in transfected cells; host or cells: E. coli JLD271 (K12 ΔsdiA), arabinose-induced pJN105-esaR
procedureText: cell-based
particulars: 3.5 h, read-out: EsaR-repressed (pesaR) antagonism
Exercise: state measured inhibition at 100 µM for each of the molecules provided.
Give bare numbers, in %.

Some solved cases for reference:
molecule	inhibition at 100 µM [%]
O=C(/C=C/c1ccccc1)N[C@H]1CCOC1=O [B10]	17
O=C(Cc1ccc(Br)cc1)N[C@H]1CCOC1=O [K3]	-76
O=C(Cc1cccc([N+](=O)[O-])c1)N[C@H]1CCOC1=O [C14, 3-NO2 PHL]	-3
CCCCCCCCCC(=O)N[C@H]1CCOC1=O [DHL, reference compound]	-59

Please turn your attention to the following entry.
Prompt line: Param item = O=C(Cc1cccc(Cl)c1)N[C@H]1CCOC1=O [C6] ; retrieve measured inhibition at 100 µM.
Response line: -58

Values were extracted from paper PMC12459020.
